Cited source: paper PMC3261798

Target: UniProt:Q15139
Sequence (Q15139 1-912): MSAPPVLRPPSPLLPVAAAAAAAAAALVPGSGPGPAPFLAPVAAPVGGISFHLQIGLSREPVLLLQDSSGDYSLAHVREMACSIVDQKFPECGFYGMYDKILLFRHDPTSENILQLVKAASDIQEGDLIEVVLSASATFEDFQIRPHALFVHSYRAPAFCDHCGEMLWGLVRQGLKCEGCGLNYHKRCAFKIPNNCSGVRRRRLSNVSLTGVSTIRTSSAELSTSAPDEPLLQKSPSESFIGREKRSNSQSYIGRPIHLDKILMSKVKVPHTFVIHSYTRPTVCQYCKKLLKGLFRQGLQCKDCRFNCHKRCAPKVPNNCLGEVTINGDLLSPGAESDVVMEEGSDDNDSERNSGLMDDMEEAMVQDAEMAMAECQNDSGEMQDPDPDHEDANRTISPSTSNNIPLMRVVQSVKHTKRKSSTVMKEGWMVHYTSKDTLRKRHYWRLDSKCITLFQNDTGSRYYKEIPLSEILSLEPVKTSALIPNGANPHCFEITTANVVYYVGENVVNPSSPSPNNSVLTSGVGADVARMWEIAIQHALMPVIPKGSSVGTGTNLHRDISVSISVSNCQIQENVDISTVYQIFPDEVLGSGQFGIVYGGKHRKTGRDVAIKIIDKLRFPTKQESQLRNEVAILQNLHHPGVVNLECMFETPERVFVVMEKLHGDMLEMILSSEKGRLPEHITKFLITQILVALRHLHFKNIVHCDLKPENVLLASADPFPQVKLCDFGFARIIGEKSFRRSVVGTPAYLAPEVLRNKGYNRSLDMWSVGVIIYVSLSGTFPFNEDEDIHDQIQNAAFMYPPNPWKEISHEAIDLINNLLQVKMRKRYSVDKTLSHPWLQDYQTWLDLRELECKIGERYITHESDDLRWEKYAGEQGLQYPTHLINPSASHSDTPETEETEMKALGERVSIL
Test: IMAP-based PKD Fluorescence Polarization (FP) assay, automated HTS format
Type: biochemical
Settings: mean ± SEM, n = number of independent experiments
pIC50: −log10 of the molar value.
Decide using pIC50: a value greater than or equal to 5 is y, a smaller one is n.

Some solved entries appear below for comparison.
O=C1NCCc2c1[nH]c1ccc(O)cc21 [kb-NB123-59]; n
O=C1NCCCc2c1oc1ccc(O)cc21 [CID755673]; y
O=C1NCCC(=O)c2c1oc1ccc(O)cc21 [kb-NB123-63]; n
C=CCOc1ccc2oc3c(c2c1)CCCNC3=O [kb-NB77-84]; y
O=C1NCCCc2c1[nH]c1ccc(O)cc21 [kb-NB123-57]; y
Nc1ccc2[nH]c3c(c2c1)CCNC3=O [kb-NB142-08]; n

Now turn to the next compound.
## Task Could you verify whether the entry COc1ccc2oc3c(c2c1)CCCN(C)C3=O [kb-NB96-04] shows pIC50 of no less than 5?
## Result n

----------
Target: PKD1 (Homo sapiens)
Sequence (Q15139 1-912): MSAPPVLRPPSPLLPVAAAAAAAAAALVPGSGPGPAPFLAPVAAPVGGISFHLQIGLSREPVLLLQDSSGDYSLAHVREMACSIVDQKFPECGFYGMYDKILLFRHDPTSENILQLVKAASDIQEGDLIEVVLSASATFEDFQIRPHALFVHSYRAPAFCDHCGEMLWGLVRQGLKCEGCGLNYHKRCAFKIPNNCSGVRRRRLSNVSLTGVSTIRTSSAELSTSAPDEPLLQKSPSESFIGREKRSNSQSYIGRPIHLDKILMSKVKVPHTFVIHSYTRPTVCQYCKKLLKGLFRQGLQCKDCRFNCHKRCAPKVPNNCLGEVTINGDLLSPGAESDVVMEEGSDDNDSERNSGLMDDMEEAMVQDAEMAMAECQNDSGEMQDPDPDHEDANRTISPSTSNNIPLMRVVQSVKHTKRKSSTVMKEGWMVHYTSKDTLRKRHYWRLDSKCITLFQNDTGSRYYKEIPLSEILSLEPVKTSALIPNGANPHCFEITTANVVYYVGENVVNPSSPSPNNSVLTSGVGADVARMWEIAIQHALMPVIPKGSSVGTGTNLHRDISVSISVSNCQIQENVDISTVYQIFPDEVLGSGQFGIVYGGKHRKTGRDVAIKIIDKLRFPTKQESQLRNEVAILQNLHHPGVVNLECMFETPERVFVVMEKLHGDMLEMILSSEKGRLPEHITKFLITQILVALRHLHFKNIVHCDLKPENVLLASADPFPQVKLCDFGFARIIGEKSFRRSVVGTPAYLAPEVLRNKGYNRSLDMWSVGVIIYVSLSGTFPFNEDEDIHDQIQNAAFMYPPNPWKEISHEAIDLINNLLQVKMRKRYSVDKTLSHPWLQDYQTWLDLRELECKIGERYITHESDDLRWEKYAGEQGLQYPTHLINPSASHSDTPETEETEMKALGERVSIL
Assay: % PKD1 activity at 1 μM (single concentration; assay format not stated)
Type: biochemical
Conditions: compound at 1 μM
Class definitions on remaining activity at 1 µM: small value = under 50%, mid value = from 50% up to 90%, large value = 90% and over

Here are 7 compounds together with their reported answers.
O=C1NCCSc2c1sc1c(OCc3ccccc3)cccc21 [kb-NB184-38]; large value
O=C1NCCCOc2c1sc1ccc(OCc3ccccc3)cc21 [kb-NB184-36]; mid value
O=C1NCCCSc2c1sc1ccc(O)cc21 [kb-NB165-92]; small value
Nc1ccc2sc3c(c2c1)SCCNC3=O [mcf292-03]; mid value
COc1ccc2sc3c(c2c1)[S+]([O-])CCNC3=O (centres unmarked) [kb-NB184-45]; large value
O=C1NCCSc2c1sc1ccc(O)c(Br)c21 [kb-NB184-52]; small value
COc1ccc2sc3c(c2c1)SCCCNC3=O [kb-NB184-02]; small value

Please find the next compound below.
## Task // bin(item) where item = NCCN1CCSc2c(sc3ccc(O)cc23)C1=O [kb-NB165-75]
## Result mid value
